- Tested on: dogs
- method: animal or person
- Format: in vivo
- details: dog; at 80-85% neuromuscular blocking dose
Would you mind telling me the reported ΔBP (change in arterial blood pressure) of each entry?
Numbers only; they are read as %.

In plain terms, CC(=O)Oc1ccc(C[N+]2(C)[C@@H]3CC[C@H]2C[C@@H](OC(=O)C2CCCC(C(=O)O[C@H]4C[C@H]5CC[C@@H](C4)[N+]5(C)Cc4ccc(OC(C)=O)c(OC(C)=O)c4)C2)C3)cc1OC(C)=O.[Br-].[Br-] (some centres unmarked) has a documented ΔBP (change in arterial blood pressure) of −5

Entry CC(=O)Oc1ccc(C[N+]2(C)[C@@H]3CC[C@H]2C[C@@H](OC(=O)CCCC(=O)O[C@H]2C[C@H]4CC[C@@H](C2)[N+]4(C)Cc2ccc(OC(C)=O)c(OC(C)=O)c2)C3)cc1OC(C)=O.[Br-].[Br-] (some centres unmarked) ; ΔBP (change in arterial blood pressure) = 0

The recorded ΔBP (change in arterial blood pressure) for COc1cc(C[N+]2(C)[C@@H]3CC[C@H]2C[C@@H](OC(=O)C2CCCC(C(=O)O[C@H]4C[C@H]5CC[C@@H](C4)[N+]5(C)Cc4ccc(OC(C)=O)c(OC)c4)C2)C3)ccc1OC(C)=O.[Br-].[Br-] (some centres unmarked) is −25

Sample COc1cc(C[N+]2(C)[C@@H]3CC[C@H]2C[C@@H](OC(=O)C2CCC2C(=O)O[C@H]2C[C@H]4CC[C@@H](C2)[N+]4(C)Cc2ccc(OC(C)=O)c(OC)c2)C3)ccc1OC(C)=O.[Br-].[Br-] (some centres unmarked) ; ΔBP (change in arterial blood pressure) observed: −15

Sure, the documented ΔBP (change in arterial blood pressure) for CC(=O)Oc1ccc(C[N+]2(C)[C@@H]3CC[C@H]2C[C@@H](OC(=O)C2CCC2C(=O)O[C@H]2C[C@H]4CC[C@@H](C2)[N+]4(C)Cc2ccc(OC(C)=O)c(OC(C)=O)c2)C3)cc1OC(C)=O.[Br-].[Br-] (some centres unmarked) is −7

###

Task for the reader: assign each of the following compounds its reported RI (recovery index).
- Test system: anesthetized monkeys
- method: In vivo neuromuscular block and cardiovascular side effects, monkey (Example 8, Table 6)
- details: spontaneous recovery, 25-75% neuromuscular response
Provide only the numeric value, understood in min.

Measured RI (recovery index) of COc1cc(C[N+]2(C)C3CCC2CC(OC(=O)C2C4C=CC(C4)C2C(=O)OC2CC4CCC(C2)[N+]4(C)Cc2ccc(OC(C)=O)c(OC)c2)C3)ccc1OC(C)=O.[Br-].[Br-] (stereo not shown) : 0.5

Just so you know, measured RI (recovery index) for CC(=O)Oc1ccc(C[N+]2(C)[C@@H]3CC[C@H]2C[C@@H](OC(=O)C2CCC2C(=O)O[C@H]2C[C@H]4CC[C@@H](C2)[N+]4(C)Cc2ccc(OC(C)=O)c(OC(C)=O)c2)C3)cc1OC(C)=O.[Br-].[Br-] (stereo partly shown) came out at 0.4

Entry under test: CC(=O)Oc1ccc(C[N+]2(C)C3CCCC2CC(OC(=O)CCCCC(=O)OC2CC4CCCC(C2)[N+]4(C)Cc2ccc(OC(C)=O)c(OC(C)=O)c2)C3)cc1OC(C)=O.[Br-].[Br-] (stereo not shown) . Its RI (recovery index) was 0.4

Record CC(=O)Oc1ccc(C[N+]2(C)[C@@H]3CC[C@H]2C[C@@H](OC(=O)C2CCCC(C(=O)O[C@H]4C[C@H]5CC[C@@H](C4)[N+]5(C)Cc4ccc(OC(C)=O)c(OC(C)=O)c4)C2)C3)cc1OC(C)=O.[Br-].[Br-] (stereo partly shown) . Reported RI (recovery index): 0.65

RI (recovery index) reported for this compound CC(=O)Oc1ccc(C[N+]2(C)C3CCCC2CC(OC(=O)CCCCCCC(=O)OC2CC4CCCC(C2)[N+]4(C)Cc2ccc(OC(C)=O)c(OC(C)=O)c2)C3)cc1OC(C)=O.[Br-].[Br-] (stereo not shown) : 0.4

Quick note, RI (recovery index) for CC(=O)Oc1ccc(C[N+]2(C)C3CCCC2CC(OC(=O)CCCCCC(=O)OC2CC4CCCC(C2)[N+]4(C)Cc2ccc(OC(C)=O)c(OC(C)=O)c2)C3)cc1OC(C)=O.[Br-].[Br-] (stereo not shown) landed at 0.55

Sure, the documented RI (recovery index) for COc1cc(C[N+]2(C)[C@@H]3CC[C@H]2C[C@@H](OC(=O)C2CCCC(C(=O)O[C@H]4C[C@H]5CC[C@@H](C4)[N+]5(C)Cc4ccc(OC(C)=O)c(OC)c4)C2)C3)ccc1OC(C)=O.[Br-].[Br-] (stereo partly shown) is 0.5

Reported RI (recovery index) for CC(=O)Oc1ccc(C[N+]2(C)C3CCC2CC(OC(=O)C2C4C=CC(C4)C2C(=O)OC2CC4CCC(C2)[N+]4(C)Cc2ccc(OC(C)=O)c(OC(C)=O)c2)C3)cc1OC(C)=O.[Br-].[Br-] (stereo not drawn) [bis[N-(3,4-diacetoxybenzyl)tropanium-3α-yl]trans-3,6-endomet] was 0.65

For this compound ( COc1ccc(CC2c3cc(OC)c(OC)cc3CC[N+]2(C)CCC(=O)OCCCCCOC(=O)CC[N+]2(C)CCc3cc(OC)c(OC)cc3C2Cc2ccc(OC)c(OC)c2)cc1OC (stereo not shown) [Atracurium, reference compound] ), measured RI (recovery index) is 7.5

The recorded RI (recovery index) for CC(=O)Oc1ccc(C[N+]2(C)C3CCCC2CC(OC(=O)C2CCC2C(=O)OC2CC4CCCC(C2)[N+]4(C)Cc2ccc(OC(C)=O)c(OC(C)=O)c2)C3)cc1OC(C)=O.[Br-].[Br-] (stereo not shown) is 0.4
